Measured max activation accompanies every entry in the list below.
- test.target: Nuclear receptor subfamily 1 group I member 2 (Rattus norvegicus) (UniProt Q9R1A7)
- Sequence (Q9R1A7 whole entry, looked up): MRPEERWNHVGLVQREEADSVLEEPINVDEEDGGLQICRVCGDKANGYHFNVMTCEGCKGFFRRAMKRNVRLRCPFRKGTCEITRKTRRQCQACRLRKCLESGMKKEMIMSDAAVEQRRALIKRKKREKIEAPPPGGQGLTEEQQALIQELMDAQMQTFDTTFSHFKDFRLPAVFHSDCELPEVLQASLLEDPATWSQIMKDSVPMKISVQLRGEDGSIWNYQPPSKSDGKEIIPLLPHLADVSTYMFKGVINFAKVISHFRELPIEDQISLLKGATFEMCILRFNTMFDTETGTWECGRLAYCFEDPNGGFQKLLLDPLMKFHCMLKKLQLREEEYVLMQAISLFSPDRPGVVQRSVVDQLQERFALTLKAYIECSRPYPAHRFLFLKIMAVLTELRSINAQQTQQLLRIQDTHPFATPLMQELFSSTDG
- run.description: Rat pregnane X receptor (rPXR) activation by small molecules, qHTS assay (AID 1346983); further: on the % scale 0 is the no-effect control and ±100 the full control effect
- run.parameters: rPXR luciferase reporter cells, One-Glo luminescence, 24 h; stronger effect = higher value
Records with an inconclusive call do not appear.
Answer with a number only, understood to be in %.

As a guide, the following entries are already answered.
• CSc1ccc2c(c1)C(N1CCN(C)CC1)Cc1ccccc1S2 (stereo unspecified) = -6.14
• Cc1cc(O)c2ccccc2c1O = 10
• Cc1cc(C2CCCCC2)n(O)c(=O)c1 = -2.39
• O=c1c(-c2ccccc2)c1-c1ccccc1 = -15.6

Prompt line: Let me know recorded max activation for CCCCCCC[N+](CC)(CC)CCCCc1ccc(Cl)cc1 , thanks.
Response line: -3.24

Prompt line: Let me know recorded max activation for CCOC(=O)O[C@]1(C(=O)OCCl)CC[C@H]2[C@@H]3CCC4=CC(=O)C=C[C@]4(C)[C@H]3[C@@H](O)C[C@@]21C , thanks.
Response line: -1.8

From: PubChem BioAssay (Tox21)
